Test system: K4 kissing-loop RNA reporter
test_description: apparent KD of K4 kissing-loop reporter; higher = weaker reporter binding
experimental_setup: Eterna round: R107; input ligand: none
measured_endpoint: apparent KD of K4 kissing-loop reporter
Write the numeric value and follow it with the unit.

GET /value?item= CUGGGUUGACGAAAAGUCAACAAAAGAGAAGGAGCGCACGAAAGUGCAGGUAGGUCGCUCAAUCCAGUGAUGUUGGGUCGUCCAG [#OpenEnded 11 #K4Late] &field=apparent KD of K4 kissing-loop reporter returns 284 nM

Please fill in: apparent KD of K4 kissing-loop reporter reported for AGAUACUUUAUCGCUAGAGGCAUUGCAGAUACCAGCCUAUCUAGAGGCCCUUGGCAGCUGGAGUGAUGUUUCGGCUUAGCUAAAG [theeternabot_exclusion_KL_Theo_A_32] = 323 nM

Sample UCCAAUAUUUAUUGAUCCGCCUCGCAUCAACGAGGACCGGUACGGCCGCCACUCGUGCCUAGGUAGUGAUGUUACUUAGUUUACU [theeternabot_sameState_KL_Trp_A_32] ; apparent KD of K4 kissing-loop reporter observed: 114 nM

----------
System: K4 kissing-loop RNA reporter;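 further: bound reporter read as fluorescence of individual clusters on recovered sequencing chips by microscopy, with normalized cluster intensities fitted with a binding model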
test_description: apparent KD of K4 kissing-loop reporter; higher = weaker reporter binding
experimental_setup: Eterna round: R107; input ligand: arginine 13.2 mM
Kind request: treat 300 nM as inclusive, so apparent KD of K4 kissing-loop reporter at 300 nM or higher is MET, anything lower is NOT MET.

// query hey, is apparent KD of K4 kissing-loop reporter for this one >= 300 nM? AGGUCCGAGCCUGCAAAGGCUCGGACCUGUUAGGAUAUGACGUUAUUCAGAAGGGAUGGGUGGAGUGAUGUUCCACCCGCAAGGG [#2 Same State - FMN A Attempt #7 (HarryS)]
// result NOT MET

// query Hi team, for AUCGAUAUCAGAGGAUAUGCUUAAUAGAUUUAUUAUUAUCUAUUAUGCAGUGAUGUUGCAUAUUUUGCAGAAGGCUGAUUUCGAA [JR_SSFMNB_Sub019] , is the recorded apparent KD of K4 kissing-loop reporter at or above 300 nM?
// result MET

// query Hi team, for UUGCAAGAGUCGGCCGCCACUCCGGGCCCUAUAAAUGGGCGCAGUGAUGUUGCGGCUAGGCCUCUGAGGACCGGGACUUUGUAGC [Ateusraor] , is the recorded apparent KD of K4 kissing-loop reporter at or above 300 nM?
// result NOT MET

// query Is it the case that GGGCAUCUGGCUGAUACCAGUGAUAAAGGGUAAGAGACAGGGAGUGAUGUUCCCUUUAGCCACCCUUGGCAGCAGUUUAAGUUUG [Exclusion Theophylline B GF 17] has apparent KD of K4 kissing-loop reporter reaching or exceeding 300 nM?
// result NOT MET

// query Given AGUGGUGUAUCUUUUAAGAGUGAUGUUUUUCGAGGACCGGUACGGCCGCCACUCGAGUGAUGAGUGCGUCGUUGUGGUGAUUAGU [#14 K4 Tryptophan A Exclusion] , state whether its apparent KD of K4 kissing-loop reporter is at least 300 nM.
// result MET

----------
Tested on: MS2 coat protein
test_description: apparent KD of MS2 coat protein; designed switch direction (-1 OFF switch, 1 ON switch): 1; higher = weaker reporter binding
experimental_setup: Eterna round: R95; input ligand: FMN 200 uM
Hi, to clarify the labels: TRUE covers apparent KD of MS2 coat protein from 40 nM upward, FALSE covers anything below 40 nM.

// query Test whether the sequence CUGCAACAUGAGGAUCACCCAUGUAACCCGGUUACAGGAUAUGUGAUGGUGAUCGACAUGACAGAAGGGUGAUUGG [Indiinbi] (puzzle: Same State 1) records apparent KD of MS2 coat protein of 40 nM or higher.
// result TRUE

// query Decide: apparent KD of MS2 coat protein of AUAUUACAUGAGGAUCACCCAUGUCUCUAAAGUCGAGGAUAUGGGCAGGUUAUAUCCGAACCAGAAGGCGAAUUAU [SS1 Teenbexe 9] (puzzle: Same State 1) >= 40 nM?
// result TRUE

// query Exam item: decide whether the reported apparent KD of MS2 coat protein for AGUCCAGCCUGAGCUGGACAAAAGCAUGUACAUGAGGAUCACCCAUGUCAUGUACAAGCUUUUUGCUCAUCUUAAAA [Mat - hsa-mir-208a - Mod of JL - D11] (puzzle: Sensor for hsa-mir-208a) is at least 40 nM.
// result TRUE

// query # check: apparent KD of MS2 coat protein of GAGGGAUGAGCGUAGGAUAUAGGAGAAGUGACAUGAGGAUCACCCAUGUAGGAGGAGGGAUGAGACUAGAAGGACGAGGUAGGAG [JR_SS2_Sub061] (puzzle: Same State 2) is greater than or equal to 40 nM
// result FALSE

// query Could you tell me if the measured apparent KD of MS2 coat protein of CCGCGCUGUCGAGAGGAUAUGCGGUGAUGGACAUGAGGAUCACCCAUGUUAGCGAUAGCAUUACUGUAGAAGGCUCUACAGCGGC [JL-ss2-3.10 ViennaUCT mod] (puzzle: Same State 2) reaches 40 nM or more?
// result FALSE

// query Does apparent KD of MS2 coat protein meet or surpass 40 nM for AAUAAAGUCAGUAAGGAUAUCCAAAUGGCGACAUGAGGAUCACCCAUGUAAGAAACCCGACAUCGGGAGAAGGUACAUGACGAUG [Enlaorle] (puzzle: Same State 2) ?
// result TRUE

// query # bool: apparent KD of MS2 coat protein of AUAAAACAUGAGGAUCACCCAUGUCAAAAGACAUGAGGAUAUGUGCAAAUAAAAUAAGAAACAGAAGGCAUGAAAA [salish99_ss1_r3_103] (puzzle: Same State 1) >= 40 nM
// result TRUE

// query Is apparent KD of MS2 coat protein at least 40 nM? Consider AUUUAACAAGCUUUUUGCUCGUCUUAUAAACAUGAGGAUCACCCAUGUAAUAGCGUGAGAGUAAUUAAUUAAAUAAU [JMF 90] (puzzle: Sensor for hsa-mir-208a)
// result FALSE

// query Tell me whether apparent KD of MS2 coat protein is at least 40 nM here: AACAAUCUAUCUGAGGAUAUCAUGAAAUAAACAUGAGGAUCACCCAUGUGCUGGAAAACUGCAUAUGAGAAGGCAGAUAGAUUGA [salish99_ss2_r3_037] (puzzle: Same State 2)
// result FALSE

// query Record AACAUUCUAUCUCAGGAUAUCAUGUCAAAGACAUGAGGAUCACCCAUGUACCAGGAAACUGGUUAUGAGAAGGGAGAUAGAAUGG [Mat - Same State 2 - Mod - D48] (puzzle: Same State 2) ; criterion: apparent KD of MS2 coat protein no lower than 40 nM. Met?
// result TRUE

// query Threshold query (apparent KD of MS2 coat protein >= 40 nM) on GGUCCAGCCUGAGCUGGACAAAAGCAUGUACAUGAGGAUCACCCAUGUUCAUGUACAAGCUUUUUGCUCGUCUUAGU [salish99_208a_r3_069] (puzzle: Sensor for hsa-mir-208a)
// result TRUE

// query Evaluate ACAAGCUUUUUUGUAGUGAAAGGUGGGAUACAUGAGGAUCACCCAUGUAUUGUUGUUAAUAUUUGUCCUCGUCUUAU [JR_SHM208A_Sub085] (puzzle: Sensor for hsa-mir-208a) : apparent KD of MS2 coat protein at minimum 40 nM?
// result FALSE

// query Tell me whether apparent KD of MS2 coat protein is at least 40 nM here: AAACCCAGUCUGUAGGAUAUGCACCUGCCGACAUGAGGAUCACCCAUGUACCCUAACAACAGCGUGCAGAAGGGCAGCAAUAAAA [Verilara] (puzzle: Same State 2)
// result FALSE

// query Check this sequence for apparent KD of MS2 coat protein at or above 40 nM: GAGUGAUGGGUUAGUAACUGCUAGGAAGGACAUGAGGAUCACCCAUGUGAGUAACGAGCUUGUGCUCGUCUUAUAAG [JR_SHM208A_Sub021] (puzzle: Sensor for hsa-mir-208a)
// result TRUE

// query Does the sequence AAGAGACAUGAGGAUCACCCAUGUUUGAAUAAUAUAGGAUAUAUACCACAUGUAAAAGAAAUAGAAGGAUAAGAAA [Default title] (puzzle: Same State 1) have recorded apparent KD of MS2 coat protein that is 40 nM or more?
// result TRUE

// query Assess whether reported apparent KD of MS2 coat protein for AGGGAGGAAGCUGAGGAUAUCGUAAGGAGGACAUGAGGAUCACCCAUGUGUGUAGAAUUGGAGGACGAGAAGGCAGAGGAGUGGG [JR_SS2_Sub053] (puzzle: Same State 2) sits at 40 nM or higher.
// result FALSE

// query Reported apparent KD of MS2 coat protein at or above 40 nM? UAGUACAAGCUUUUUGCCCGUCUUAUUUAACAUGAGGAUCACCCAUGUAAGGUGAAAGUUAGAGAGUGGAGGUUGAA [JR_SHM208A_Sub049] (puzzle: Sensor for hsa-mir-208a)
// result TRUE

// query Is apparent KD of MS2 coat protein for CAGCGCUGUCGAGAGGAUAUGCGGUGAUGGACAUGAGGAUCACCCAUGUUAGCGAUAGCAUUACGGUAGAAGGCUCUACAGCUGC [Soteed no mod] (puzzle: Same State 2) at or above 40 nM?
// result FALSE

// query Check the entry AUAAGUUCGAUGCUCGUCUCUCCGUACAAACAUGAGGAUCACCCAUGUGAUCGGGAAGUAGCCCAAUCAGUAUGGCC [Oranlaen] (puzzle: Sensor for hsa-mir-208a) : does apparent KD of MS2 coat protein equal or exceed 40 nM?
// result FALSE
